Reference source for all entries: ChEMBL document CHEMBL1201862

These compounds were tested on Cytochrome P450 2D6 (Homo sapiens); AC50 is the recorded read-out.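 Further: CYP2D6 member of a cytochrome P450 panel assay.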
Sequence (P10635 whole entry): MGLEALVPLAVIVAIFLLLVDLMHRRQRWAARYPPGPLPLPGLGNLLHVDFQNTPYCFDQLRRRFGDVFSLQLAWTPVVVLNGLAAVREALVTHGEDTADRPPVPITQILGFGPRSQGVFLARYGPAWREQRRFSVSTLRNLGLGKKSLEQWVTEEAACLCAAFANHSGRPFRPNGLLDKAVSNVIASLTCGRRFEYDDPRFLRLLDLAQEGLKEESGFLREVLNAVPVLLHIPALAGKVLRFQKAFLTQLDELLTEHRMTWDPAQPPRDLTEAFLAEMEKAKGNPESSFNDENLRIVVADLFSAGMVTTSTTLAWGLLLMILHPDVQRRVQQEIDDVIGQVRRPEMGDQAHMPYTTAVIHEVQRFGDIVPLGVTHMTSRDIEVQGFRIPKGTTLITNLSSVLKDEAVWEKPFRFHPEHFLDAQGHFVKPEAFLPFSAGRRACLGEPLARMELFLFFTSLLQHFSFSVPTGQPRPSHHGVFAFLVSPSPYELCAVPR

COc1ccc(C2=NOC(C(=O)N3CCCc4ccccc43)C2)cc1 (stereo not drawn) :: 20 µM (inconclusive)
O=C(Cn1cc(C(F)(F)F)ccc1=O)N1CCN(S(=O)(=O)c2ccccc2)CC1 :: 11.2 µM (inconclusive)
O=C(Nc1ccc(Cl)c(Cl)c1)N1CCC(N2CCCCC2)CC1 :: 10 µM (inconclusive)
COc1ccc(O[C@H]2C=C[C@@H](c3ccccc3)O[C@H]2CO/N=C2/[C@H]3O[C@@H]3[C@@H](O)[C@H]3[C@H]2CCn2c(=O)n(-c4ccccc4)c(=O)n23)cc1 :: 3.98 µM (inconclusive)
ClCCNc1nc2cc(Cl)ccc2[nH]1 :: 6.31 µM (inconclusive)
O=C(O)C1=CC(=C(c2ccc(O)c(C(=O)O)c2)c2ccc(O)c(C(=O)O)c2)C=CC1=O :: 39.8 µM (inconclusive)
CC(C)(C)NC[C@H](O)c1ccccc1Cl :: 31.6 µM (inconclusive)
CCSc1nnc([C@@H](N)Cc2c[nH]c3ccccc23)o1 :: 12.6 µM (inconclusive)
COCC(C)n1c(C)cc(C(=O)CSc2nnc(Nc3ccccc3F)s2)c1C (stereo not drawn) :: 25.1 µM (inconclusive)
OC(c1ccccc1)(c1ccccc1)C1CCCN1 (stereo not drawn) :: 25.1 µM (inconclusive)

Task: Looking for the measured AC50 of O=C(NCC1CCCO1)C1c2ccccc2C(=O)N1Cc1ccc2c(c1)OCO2 (stereo not drawn) , can you help?
Result: 15.8 µM (inconclusive)

Task: Please look up its AC50: `O=C(N/N=C/c1cccc(OCc2ccccc2)c1)c1cccs1`
Result: 25.1 µM (inconclusive)

Task: Looking for the measured AC50 of `CCOc1c2ccc(C(=O)N[C@H](C)C3CCCCC3)cc2nn1CC` , can you help?
Result: 10 µM (inconclusive)

----------
biological target: Heat shock factor protein 1 (Mus musculus, UniProt P38532); assay: HSF1 potentiators in luciferase reporter cells, confirmation, cell-based, NIH3T3, luminescence, dose retest (AID 435004); assay type: functional;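 further: stress induced by proteasome inhibitor MG132 added 30 min after compound; luciferase reporter driven by HSF1 response element in NIH3T3 cells; actives raise luminescence as potentiators of the MG132 stress response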
Sequence (P38532 whole entry): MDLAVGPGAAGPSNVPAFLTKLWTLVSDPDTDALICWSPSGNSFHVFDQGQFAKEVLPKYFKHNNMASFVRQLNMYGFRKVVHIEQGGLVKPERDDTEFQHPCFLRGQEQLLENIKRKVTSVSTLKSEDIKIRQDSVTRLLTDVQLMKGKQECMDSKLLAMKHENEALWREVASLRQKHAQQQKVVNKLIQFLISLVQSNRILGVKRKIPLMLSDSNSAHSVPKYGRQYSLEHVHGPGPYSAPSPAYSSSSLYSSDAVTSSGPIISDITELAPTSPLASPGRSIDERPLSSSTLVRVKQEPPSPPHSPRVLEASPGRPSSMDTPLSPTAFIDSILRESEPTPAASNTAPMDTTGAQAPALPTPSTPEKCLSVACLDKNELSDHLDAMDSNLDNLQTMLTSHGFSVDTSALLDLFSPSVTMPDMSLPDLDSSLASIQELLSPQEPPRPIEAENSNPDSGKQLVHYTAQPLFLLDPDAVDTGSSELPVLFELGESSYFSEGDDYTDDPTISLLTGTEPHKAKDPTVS
The source made the active and inactive calls.
Tick one outcome: TRUE for active, FALSE for inactive

Cc1cc(C)n2nc(C(=O)N/N=C/c3c4ccccc4cc4ccccc34)nc2n1 :: FALSE
CN(/C(=N\S(=O)(=O)c1ccccc1)c1ccccc1)c1ccc(O)cc1 :: FALSE
COC(=O)C1C(=O)C2=C(CC1C)N=C(C)/C(=C(/O)OCc1ccc(OC)cc1)C2c1ccc(C)o1 (stereo unspecified) :: FALSE
Oc1cccnc1Sc1cccc(C(F)(F)F)c1 :: TRUE
COc1ccc(Br)cc1CN1CCCCCCC1 :: FALSE

Task: Check the results log: what was the call for `COc1cc(/C=C/C(=O)c2c(O)ccc3c(C)cc(=O)oc23)ccc1O` ?
Result: TRUE

Task: # outcome recorded in this test, key = `COc1ccc(S(=O)(=O)Cc2ccc(C(=O)NCCCN(C)c3ccccc3)o2)cc1`
Result: FALSE

Task: Assay outcome for C=CCc1ccc(OCC(O)CO)c(OC)c1 (stereo unspecified) : what was it?
Result: FALSE

Task: Any idea what this test logged for `COc1ccc(Cc2nnc(SCC(=O)Nc3ccc(N4CCOCC4)cc3)o2)cc1` ?
Result: FALSE

Task: Could you check what this test reported for `FC(F)(F)c1cnc(Sc2nc3nccc(-c4ccc(Cl)cc4)n3n2)c(Cl)c1` ?
Result: FALSE

Task: Call for entry `O=C(CCc1ccc(S(=O)(=O)N2CCOCC2)cc1)N1CCN(Cc2ccc3c(c2)OCO3)CC1` :
Result: FALSE

Task: Please let me know the test result on file for `COc1ccc(-c2cc(C(=O)NCc3ccco3)c3ccccc3n2)cc1` .
Result: TRUE

Task: Write down the call the test reported for this compound. Item: CN1C(=O)C(=C2CC(c3ccc(Cl)cc3)NN2)C(=O)N(C)C1=O (stereo unspecified)
Result: FALSE

Task: Could you please tell me the result logged for Cc1ccc(C(=O)NCC(C)NC(=O)c2ccc(C)c([N+](=O)[O-])c2)cc1[N+](=O)[O-] (stereo unspecified) in this assay?
Result: FALSE

Task: Can you look up the reported call for COc1cc(NC(=O)c2cc([N+](=O)[O-])ccc2NC(=O)CNC2CCCCC2C)cc(OC)c1 (stereo unspecified) for me?
Result: FALSE

----------
biological target: Cytochrome P450 2C9 (Homo sapiens)
Sequence (P11712 whole entry): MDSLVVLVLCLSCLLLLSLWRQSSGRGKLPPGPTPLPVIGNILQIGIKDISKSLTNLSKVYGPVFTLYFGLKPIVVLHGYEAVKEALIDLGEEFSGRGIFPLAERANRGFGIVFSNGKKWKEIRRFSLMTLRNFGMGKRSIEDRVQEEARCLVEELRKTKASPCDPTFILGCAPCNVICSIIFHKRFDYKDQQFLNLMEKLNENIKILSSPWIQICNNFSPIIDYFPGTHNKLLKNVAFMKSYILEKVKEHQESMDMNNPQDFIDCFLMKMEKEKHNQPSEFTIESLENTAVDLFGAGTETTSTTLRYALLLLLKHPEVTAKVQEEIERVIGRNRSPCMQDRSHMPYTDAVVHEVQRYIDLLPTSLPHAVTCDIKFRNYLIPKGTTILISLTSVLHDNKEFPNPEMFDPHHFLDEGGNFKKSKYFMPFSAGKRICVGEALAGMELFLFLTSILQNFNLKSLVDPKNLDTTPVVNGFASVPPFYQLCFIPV
metric name: AC50

Take a look at these entries with their results.
COc1cc(-n2ccnc2SC)c(Cl)cc1Cl :: 39.8 µM (inconclusive)
COC(=O)[C@@]1(Cc2ccccc2)[C@H]2c3cc(C(=O)N(C)C)n(Cc4ccc(S(C)(=O)=O)cc4)c3C[C@H]2CN1C(=O)c1ccccc1 :: 25.1 µM (inconclusive)
O=C(CCN1C(=O)C2C3C=CC(C3)C2C1=O)N1CCN(c2cccc(Cl)c2)CC1 (stereo not given) :: 11.2 µM (inconclusive)
Clc1ccc(CSc2nccn2Cc2ccccc2)cc1 :: 22.4 µM (inconclusive)
Cc1ccc2c(c1)N(CCC(=O)NCc1ccc3c(c1)OCO3)C(=O)CO2 :: 0.00562 µM (inconclusive)
COC(=O)C/C=C\[C@@H](C)[C@@H](/C=N\OCC[C@H]1C=C[C@H](OC(C)=O)[C@@H](COC(C)=O)O1)NS(=O)(=O)c1ccc(C)cc1 :: 5.01 µM (inconclusive)
C[C@@H](C(=O)NCCF)[C@H]1C[C@]1(C)[C@H](NC(=O)OCc1ccccc1)c1ccccc1 :: 25.1 µM (inconclusive)
COc1ccc(O[C@H]2C=C[C@@H](c3ccccc3)O[C@H]2CO/N=C2/[C@H]3O[C@@H]3[C@@H](O)[C@H]3[C@H]2CCn2c(=O)n(-c4ccccc4)c(=O)n23)cc1 :: 2 µM (inconclusive)
Cc1nc2cnc(N(C)C)nc2n(C2CC2)c1=O :: 15.8 µM (inconclusive)
O=C(NCC1CCCO1)C1c2ccccc2C(=O)N1Cc1ccc2c(c1)OCO2 (stereo not given) :: 11.2 µM (inconclusive)

Task: Find AC50 (Cytochrome P450 2C9 (Homo sapiens)) for the entry `CCOc1c2ccc(C(=O)N[C@H](C)C3CCCCC3)cc2nn1CC`
Result: 14.1 µM (inconclusive)

Task: Record lookup: for Cytochrome P450 2C9 (Homo sapiens), what AC50 belongs to `CCOc1ccc(C(F)(F)F)cc1NC(C)=O` ?
Result: 31.6 µM (inconclusive)

Task: Give the reported AC50 for `N#Cc1cccc(NC(=O)N2CCCC3(CCN(C(=O)Oc4ccccc4)CC3)C2)c1` (system: Cytochrome P450 2C9 (Homo sapiens)).
Result: 25.1 µM (inconclusive)

Task: Checklist item: AC50 tested on Cytochrome P450 2C9 (Homo sapiens), entry `ClCCNc1nc2cc(Cl)ccc2[nH]1` , value?
Result: 4.47 µM (inconclusive)

----------
biological target: Heat shock protein HSP 90-alpha (Homo sapiens, UniProt P07900); format: functional, organism-based
The source made the active and inactive calls.
The molecules listed here are annotated with their AC50.

Solved entries:
Cc1cccc(C(=O)NC(=S)NNC(=O)Cc2ccccc2)c1 :: 4.66 µM (active)
CC(C)(C)C(=O)C(Cl)C(=O)Nc1ccccc1 (stereo unspecified) :: 1.05 µM (active)
O=C1C=CC(=O)N1c1ccc2c(c1)Cc1cc(F)ccc1-2 :: < 0.195 µM (active)

Task: Item: `Cn1c2ccccc2c2ccc3c(c21)C(=O)C=CC3=O` Test system: Heat shock protein HSP 90-alpha (Homo sapiens, UniProt P07900) Read-out: AC50 Value: ?
Result: 8.99 µM (active)

Task: # query: AC50 | item CCCC(=O)NC(c1ccc(OC)c(OC)c1)c1cc(Cl)c2cccnc2c1O (stereo unspecified) | system: Heat shock protein HSP 90-alpha (Homo sapiens, UniProt P07900)
Result: 12.4 µM (active)

Task: Request body: readout AC50, system Heat shock protein HSP 90-alpha (Homo sapiens, UniProt P07900), query `COc1ccccc1/N=c1\oc2cc(O)ccc2cc1C(N)=O` . Return the value.
Result: 17.3 µM (active)

----------
Each entry below carries its recorded IC50.
target: UniProt P11940; experiment: PABP1 MLLE–PAM2 binding inhibitor potency, dose response, biochemical, fluorescence polarization, FITC-PAM2 peptide (AID 602259); format: functional; conditions: read-out: IC50_Mean
Sequence (P11940 whole entry): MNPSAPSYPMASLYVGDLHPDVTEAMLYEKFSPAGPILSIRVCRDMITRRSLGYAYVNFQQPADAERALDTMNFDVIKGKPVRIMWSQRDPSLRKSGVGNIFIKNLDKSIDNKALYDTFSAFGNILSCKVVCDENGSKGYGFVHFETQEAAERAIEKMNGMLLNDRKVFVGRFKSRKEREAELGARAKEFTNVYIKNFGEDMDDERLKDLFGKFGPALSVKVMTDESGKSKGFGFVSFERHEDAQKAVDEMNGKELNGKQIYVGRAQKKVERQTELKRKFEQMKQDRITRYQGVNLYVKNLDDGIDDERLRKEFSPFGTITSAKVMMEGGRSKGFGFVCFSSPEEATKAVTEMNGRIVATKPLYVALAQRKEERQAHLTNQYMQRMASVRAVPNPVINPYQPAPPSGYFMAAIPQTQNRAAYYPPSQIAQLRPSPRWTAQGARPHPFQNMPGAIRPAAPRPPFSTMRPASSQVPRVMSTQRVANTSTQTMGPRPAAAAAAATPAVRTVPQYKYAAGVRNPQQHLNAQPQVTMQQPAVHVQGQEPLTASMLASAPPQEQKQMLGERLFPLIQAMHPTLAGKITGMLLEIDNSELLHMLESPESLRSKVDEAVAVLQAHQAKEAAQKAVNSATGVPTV
The source made the active and inactive calls.

OCC(O)CN=C(S)NC1CCCCC1 (stereo not given) :: > 66 µM (inactive)
Cc1nn(C)c(C(=O)NC(=S)Nc2ccc([N+](=O)[O-])cc2)c1Cl :: > 66 µM (inactive)

Task: # input molecule: CN(C(=O)CN1C(=O)/C(=C/c2ccccc2Cl)SC1=S)C1CCS(=O)(=O)C1 (stereo not given) ; wanted: its IC50
Result: > 66 µM (inactive)

Task: // returns reported IC50 for input `Cc1cc(C)n(N=C(S)NC2CCCC2)c(=O)c1C#N`
Result: > 66 µM (inactive)

Task: Requested read-out: IC50. Entry: CC(C(=O)NC1C(=O)N2C(C(=O)O)=C(CSc3nnnn3C)CSC12)n1cc(Cl)cn1 (stereo not given)
Result: > 66 µM (inactive)

Task: Sample `COc1cccc(C(=O)NC2=NCCS2)c1OC` — what was its IC50?
Result: > 66 µM (inactive)

Task: Field request: IC50 | item: `COc1ccc(NC(=O)CSc2nnc(-c3ccccc3C)n2N)cc1`
Result: > 66 µM (inactive)

Task: Report IC50 for `CCOC(=O)c1nc(Nc2ccc(C)cc2)c2ccccc2n1` please.
Result: > 66 µM (inactive)

Task: Recorded IC50 for `O=C(c1oc2ccccc2c1CSCc1ccccc1)N1CCN(c2ncccn2)CC1` , please?
Result: 38.5 µM (inactive)

Task: I'd like to know its IC50. The molecule in question is `O=C1c2ccc3c4c(ccc(c24)C(=O)N1CCCCO)C(=O)N(CCCCO)C3=O`
Result: 23.8 µM (inactive)
